# target-desc: T1, human TL1A extracellular domain with N-terminal HIS and FLAG tag (human, UniProt O95150 72-251)
# T1 construct: the whole entry is named
# T1 sequence: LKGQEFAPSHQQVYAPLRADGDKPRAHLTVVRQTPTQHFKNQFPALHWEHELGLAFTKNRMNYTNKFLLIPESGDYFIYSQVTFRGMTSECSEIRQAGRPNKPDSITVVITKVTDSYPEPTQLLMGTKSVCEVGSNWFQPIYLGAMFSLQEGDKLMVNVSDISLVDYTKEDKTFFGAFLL
# method-notes: SPR Run 6, purified Ab captured on Protein A, TL1A 5 ug/mL, timepoint 170
readout: TL1A Binding Level (Late)

320-490 (antibody, human IgG1, name in Kabat numbering, V domains shown, human IgG1, lambda) VH: QVQLVQSGAEVKKPGASVKVSCKASGYTFTSYDINWVRQAPGQGLEWMGYLNPNSGNTGYAQKFQGRVTMTADRSTSTAYMELSSLRSEDTAVYYCAREVPETAAFEYWGQGTLVTVSS VL: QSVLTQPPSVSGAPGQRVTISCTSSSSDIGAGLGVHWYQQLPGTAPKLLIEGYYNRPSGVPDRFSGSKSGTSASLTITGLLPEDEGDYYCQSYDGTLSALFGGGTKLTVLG; 8 RU

Consider the additional binder presented here.
stdin: What does the data say about its TL1A Binding Level (Late)? Entry: 320-460 (antibody, human IgG1, name in Kabat numbering, V domains shown, human IgG1, lambda) VH: QVQLVQSGAEVKKPGASVKVSCKASGYTFTSYDLNWVRQAPGQGLEWMGWLNPNSGNTGYAQKFQGRVTMTADRSTSTAYMELSSLRSEDTAVYYCAREVPETAAFEYWGQGTLVTVSS VL: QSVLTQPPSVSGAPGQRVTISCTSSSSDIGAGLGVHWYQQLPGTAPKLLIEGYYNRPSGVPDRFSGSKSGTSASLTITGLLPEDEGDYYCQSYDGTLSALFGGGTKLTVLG
stdout: 105 RU
